biological target: HA of ca A/Texas/36/91 (H1N1) virus (influenza A virus); test: cell-based or functional assay
recorded endpoint: Neutralization IC50, H1-TX91 (µg/mL)

INSERT INTO results (binder, recorded_endpoint, unit_abbrev, measured_value) VALUES
  ('Antibody 13 (antibody, V domains shown) VH: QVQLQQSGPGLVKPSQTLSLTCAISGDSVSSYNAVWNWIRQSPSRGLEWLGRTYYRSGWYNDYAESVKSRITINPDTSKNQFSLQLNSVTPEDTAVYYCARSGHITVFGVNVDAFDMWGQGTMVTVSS VL: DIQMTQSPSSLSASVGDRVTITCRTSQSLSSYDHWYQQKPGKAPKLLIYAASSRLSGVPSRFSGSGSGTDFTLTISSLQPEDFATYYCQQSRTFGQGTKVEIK', 'Neutralization IC50, H1-TX91', 'µg/mL', 0.09),
  ('Antibody 15 (antibody, V domains shown) VH: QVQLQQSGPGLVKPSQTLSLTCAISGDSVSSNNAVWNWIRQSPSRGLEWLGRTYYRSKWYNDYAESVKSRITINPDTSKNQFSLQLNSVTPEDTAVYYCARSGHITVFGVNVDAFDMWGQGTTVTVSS VL: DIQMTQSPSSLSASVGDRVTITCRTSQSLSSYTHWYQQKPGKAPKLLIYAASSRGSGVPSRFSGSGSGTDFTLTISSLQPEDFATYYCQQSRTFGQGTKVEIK', 'Neutralization IC50, H1-TX91', 'µg/mL', 0.13),
  ('Antibody 14 (antibody, V domains shown) VH: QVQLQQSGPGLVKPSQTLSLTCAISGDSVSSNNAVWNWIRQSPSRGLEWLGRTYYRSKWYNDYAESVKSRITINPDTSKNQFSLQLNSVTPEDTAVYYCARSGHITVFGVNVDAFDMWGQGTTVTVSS VL: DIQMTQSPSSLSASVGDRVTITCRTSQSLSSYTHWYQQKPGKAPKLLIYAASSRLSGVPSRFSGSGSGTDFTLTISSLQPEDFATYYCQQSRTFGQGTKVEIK', 'Neutralization IC50, H1-TX91', 'µg/mL', 0.09);
